Molecular target: GSPT1 (Homo sapiens, UniProt P15170+Q96SW2)
Construct: host or cells: HEK293 LgBiT / GSPT1 HiBiT CRISPR knock-in
Sequence (P15170 whole entry): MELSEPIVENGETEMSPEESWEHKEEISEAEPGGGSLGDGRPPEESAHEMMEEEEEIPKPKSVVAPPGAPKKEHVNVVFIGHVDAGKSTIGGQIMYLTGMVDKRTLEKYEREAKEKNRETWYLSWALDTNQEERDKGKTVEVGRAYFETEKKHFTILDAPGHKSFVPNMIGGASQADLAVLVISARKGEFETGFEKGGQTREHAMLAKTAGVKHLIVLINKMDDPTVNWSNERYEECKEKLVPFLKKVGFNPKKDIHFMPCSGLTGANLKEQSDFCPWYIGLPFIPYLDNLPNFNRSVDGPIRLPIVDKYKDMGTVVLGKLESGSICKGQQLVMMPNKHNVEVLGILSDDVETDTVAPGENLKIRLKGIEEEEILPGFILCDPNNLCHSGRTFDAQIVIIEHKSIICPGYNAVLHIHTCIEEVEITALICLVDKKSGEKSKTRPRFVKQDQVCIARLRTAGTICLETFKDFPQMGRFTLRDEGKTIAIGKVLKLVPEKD
Sequence (Q96SW2 whole entry): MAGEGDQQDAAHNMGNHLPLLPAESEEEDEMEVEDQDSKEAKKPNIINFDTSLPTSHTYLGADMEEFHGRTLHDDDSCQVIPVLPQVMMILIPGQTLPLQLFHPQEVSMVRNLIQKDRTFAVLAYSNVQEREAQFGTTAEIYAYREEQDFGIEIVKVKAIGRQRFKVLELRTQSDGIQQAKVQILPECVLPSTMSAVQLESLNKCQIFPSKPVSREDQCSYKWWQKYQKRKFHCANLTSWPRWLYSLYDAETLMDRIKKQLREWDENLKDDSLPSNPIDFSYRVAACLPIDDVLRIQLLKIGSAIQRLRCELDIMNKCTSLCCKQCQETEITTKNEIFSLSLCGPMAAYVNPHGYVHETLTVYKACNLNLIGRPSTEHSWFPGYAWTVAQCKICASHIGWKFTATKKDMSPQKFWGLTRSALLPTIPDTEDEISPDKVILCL
Sequence (Q16531 whole entry partner): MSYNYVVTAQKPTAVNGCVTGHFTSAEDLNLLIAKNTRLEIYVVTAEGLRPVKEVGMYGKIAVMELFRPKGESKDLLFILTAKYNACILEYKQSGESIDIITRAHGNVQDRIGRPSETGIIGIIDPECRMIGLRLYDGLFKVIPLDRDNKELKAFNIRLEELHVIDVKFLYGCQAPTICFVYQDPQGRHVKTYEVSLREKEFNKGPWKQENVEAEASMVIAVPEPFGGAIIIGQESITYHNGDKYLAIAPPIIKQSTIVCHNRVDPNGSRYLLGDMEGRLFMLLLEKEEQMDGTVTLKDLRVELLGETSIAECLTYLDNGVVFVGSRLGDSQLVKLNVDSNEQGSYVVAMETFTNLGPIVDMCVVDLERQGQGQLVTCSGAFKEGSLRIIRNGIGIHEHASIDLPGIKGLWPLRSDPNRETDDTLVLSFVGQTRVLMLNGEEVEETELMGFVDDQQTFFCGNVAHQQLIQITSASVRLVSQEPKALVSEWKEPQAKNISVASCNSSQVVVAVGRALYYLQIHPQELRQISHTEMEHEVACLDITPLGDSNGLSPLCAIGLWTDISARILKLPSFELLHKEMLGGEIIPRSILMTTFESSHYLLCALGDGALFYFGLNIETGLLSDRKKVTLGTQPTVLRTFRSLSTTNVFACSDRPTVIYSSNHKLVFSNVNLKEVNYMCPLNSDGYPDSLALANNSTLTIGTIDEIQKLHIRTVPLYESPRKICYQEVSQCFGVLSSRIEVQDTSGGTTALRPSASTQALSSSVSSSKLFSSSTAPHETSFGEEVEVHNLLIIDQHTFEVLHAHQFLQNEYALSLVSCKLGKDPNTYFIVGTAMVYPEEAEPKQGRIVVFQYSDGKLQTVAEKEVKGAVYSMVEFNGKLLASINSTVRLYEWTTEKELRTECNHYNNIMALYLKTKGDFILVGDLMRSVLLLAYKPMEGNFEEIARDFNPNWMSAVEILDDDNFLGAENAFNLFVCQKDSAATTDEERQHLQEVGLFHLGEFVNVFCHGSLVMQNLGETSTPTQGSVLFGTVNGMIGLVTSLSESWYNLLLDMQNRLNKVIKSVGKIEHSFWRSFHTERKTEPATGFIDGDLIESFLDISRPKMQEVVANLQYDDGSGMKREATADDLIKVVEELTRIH
Assay: GSPT1 HiBiT degradation assay
Format: cell-based
Settings: HEK293 LgBiT GSPT1 HiBiT cells, 6 hours

{"COMPOUND": "C=C(COc1cc(Cl)c(OC)cc1NC(=O)NCc1ccc2c(c1)CN(C1CCC(=O)NC1=O)C2=O)C(=O)N1CCN(c2nc(OC[C@@H]3CCCN3C)nc3c2CCN(c2cccc4cccc(Cl)c24)C3)C[C@@H]1CC#N (some centres unmarked)", "DC50": "500 to 2500 nM"}
{"COMPOUND": "C=C(COc1cc(F)c(F)cc1NC(=O)NCc1ccc2c(c1)CN(C1CCC(=O)NC1=O)C2=O)C(=O)N1CCN(c2nc(OC[C@@H]3CCCN3C)nc3c2CCN(c2cccc4cccc(Cl)c24)C3)C[C@@H]1CC#N (some centres unmarked)", "DC50": "500 to 2500 nM"}
{"COMPOUND": "C=C(COc1cc(NC(=O)NCc2ccc3c(c2F)CN(C2CCC(=O)NC2=O)C3=O)cc(C(F)(F)F)c1)C(=O)N1CCN(c2nc(OC[C@@H]3CCCN3C)nc3c2CCN(c2cccc4cccc(Cl)c24)C3)C[C@@H]1CC#N (some centres unmarked)", "DC50": "50 to 500 nM"}
{"COMPOUND": "C=C(COc1c(Cl)cccc1NC(=O)NCc1ccc2c(c1)CN(C1CCC(=O)NC1=O)C2=O)C(=O)N1CCC[C@@H](n2nc(-c3ccc(Oc4ccccc4)cc3)c3c(N)ncnc32)C1 (some centres unmarked)", "DC50": "< 50 nM"}
{"COMPOUND": "C=C(COc1cccc(NC(=O)NCc2ccc3c(c2)CN(C2CCC(=O)NC2=O)C3=O)c1)C(=O)N1CCN(c2nc(OC[C@@H]3CCCN3C)nc3c2CCN(c2cccc4cccc(Cl)c24)C3)C[C@@H]1CC#N (some centres unmarked)", "DC50": "500 to 2500 nM"}
